Data provenance is ChEMBL document CHEMBL5154779.

Each entry below carries its recorded pEC50.
Biological target: Broad substrate specificity ATP-binding cassette transporter ABCG2 (Homo sapiens, UniProt Q9UNQ0)
Sequence (Q9UNQ0 whole entry): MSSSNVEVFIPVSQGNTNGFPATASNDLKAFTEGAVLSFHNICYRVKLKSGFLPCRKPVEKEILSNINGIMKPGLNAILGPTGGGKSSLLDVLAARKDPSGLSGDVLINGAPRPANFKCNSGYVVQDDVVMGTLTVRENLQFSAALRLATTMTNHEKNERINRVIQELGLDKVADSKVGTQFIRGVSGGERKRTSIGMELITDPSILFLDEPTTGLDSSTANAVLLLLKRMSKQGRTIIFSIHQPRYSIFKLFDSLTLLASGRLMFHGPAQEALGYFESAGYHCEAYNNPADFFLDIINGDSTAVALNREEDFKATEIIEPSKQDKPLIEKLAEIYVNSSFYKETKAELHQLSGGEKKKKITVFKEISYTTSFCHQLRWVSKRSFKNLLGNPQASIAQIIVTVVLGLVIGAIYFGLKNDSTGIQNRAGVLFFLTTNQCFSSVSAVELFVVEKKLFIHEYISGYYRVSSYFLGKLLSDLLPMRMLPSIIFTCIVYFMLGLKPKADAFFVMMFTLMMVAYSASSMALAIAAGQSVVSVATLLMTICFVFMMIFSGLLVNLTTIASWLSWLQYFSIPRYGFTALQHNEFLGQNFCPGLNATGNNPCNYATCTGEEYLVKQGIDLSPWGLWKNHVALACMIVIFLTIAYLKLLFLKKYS
Assay: Inhibition of BCRP (unknown origin)
pEC50: −log10 of the molar value.

compound	pEC50
CS(=O)(=O)CCNCc1ccc(-c2ccc3ncnc(Nc4ccc(OCc5cccc(F)c5)c(Cl)c4)c3c2)o1 [LAPATINIB]	5.49
C#Cc1cccc(Nc2ncnc3cc(OCCOC)c(OCCOC)cc23)c1 [ERLOTINIB]	6.77

----------
Assay: Apparent oral volume of distribution in male Sprague-Dawley rat at 20 mg/kg,po pretreated with 3-4-chloropheny1-N-4-2-morpholinoethylpheny1-4-oxo-3,4-dihydrophthalazine-1-carboxamide at 10 mg/kg measured by LC/MS analysis
Assay type: ADME, organism-based
Settings: in vivo
quantityMeasured: Vd/F

smilesStr	result
CC(=O)O[C@H]1C(=O)[C@@]2(C)[C@H]([C@H](OC(=O)c3ccccc3)[C@]3(O)C[C@H](OC(=O)[C@H](O)[C@@H](NC(=O)c4ccccc4)c4ccccc4)C(C)=C1C3(C)C)[C@]1(OC(C)=O)CO[C@@H]1C[C@@H]2O	16 L

----------
Assay: Apparent permeability of compound in human Caco-2 cells from apical to basal after 120 mins by LC-MS/MS analysis
Type: ADME, cell-based

molecule	Papp A→B at 2 h, ×10⁻⁶ cm/s
CC(=O)O[C@H]1C(=O)[C@@]2(C)[C@H]([C@H](OC(=O)c3ccccc3)[C@]3(O)C[C@H](OC(=O)[C@H](O)[C@@H](NC(=O)c4ccccc4)c4ccccc4)C(C)=C1C3(C)C)[C@]1(OC(C)=O)CO[C@@H]1C[C@@H]2O [PACLITAXEL]	2.42

----------
Test: Apparent permeability of compound in human Caco-2 cells from apical to basal after 90 mins by LC-MS/MS analysis
Format: ADME, cell-based

smilesStr	u	Papp A→B at 1.5 h
CC(=O)O[C@H]1C(=O)[C@@]2(C)[C@H]([C@H](OC(=O)c3ccccc3)[C@]3(O)C[C@H](OC(=O)[C@H](O)[C@@H](NC(=O)c4ccccc4)c4ccccc4)C(C)=C1C3(C)C)[C@]1(OC(C)=O)CO[C@@H]1C[C@@H]2O	×10⁻⁶ cm/s	1.98
